- experimental system: GST-CDK10/Strep2-CycM (CDK10/CycM) (Homo sapiens)
- Construct: GST-CDK10 co-expressed with Strep2-CycM (pFastBacDual) in Sf9 cells, glutathione sepharose purified heterodimer, tags kept; with Cyclin-Q
- Sequence (Q15131 whole entry): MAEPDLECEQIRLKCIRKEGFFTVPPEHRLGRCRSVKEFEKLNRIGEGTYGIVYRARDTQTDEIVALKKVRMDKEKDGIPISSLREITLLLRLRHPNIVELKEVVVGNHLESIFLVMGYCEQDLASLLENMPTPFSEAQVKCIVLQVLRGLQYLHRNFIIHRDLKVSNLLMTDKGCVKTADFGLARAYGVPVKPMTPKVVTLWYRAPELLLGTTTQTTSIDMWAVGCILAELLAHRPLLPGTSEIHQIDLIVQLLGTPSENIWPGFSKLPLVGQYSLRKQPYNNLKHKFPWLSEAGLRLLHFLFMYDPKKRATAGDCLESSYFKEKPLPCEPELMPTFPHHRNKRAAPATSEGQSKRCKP
- Sequence (Q8N1B3 whole entry partner): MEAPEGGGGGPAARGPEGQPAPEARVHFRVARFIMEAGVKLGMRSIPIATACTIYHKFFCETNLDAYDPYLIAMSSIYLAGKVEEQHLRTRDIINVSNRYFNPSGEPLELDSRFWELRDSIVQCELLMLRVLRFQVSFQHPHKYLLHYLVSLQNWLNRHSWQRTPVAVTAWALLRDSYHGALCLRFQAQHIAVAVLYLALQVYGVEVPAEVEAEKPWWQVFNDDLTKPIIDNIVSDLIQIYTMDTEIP
- measurement protocol: ADP-Glo luminescent kinase assay, CDK10tide (Jar1) peptide
- Type: biochemical
- study conditions: read-out: CDK10/CycM (measured herein)
pIC50: −log10 of the molar value.
measurement kind: pIC50

1: CN1CC[C@H](c2c(O)cc(O)c3c(=O)cc(-c4ccccc4Cl)oc23)[C@H]1CO
2: CC(=O)N[C@@H]1CCC[C@H](C(=O)Nc2cc(-c3cnn4c3CC(C)(C)C4)c(Cl)cn2)C1
stdin: Name the one with the greater pIC50 value, either 1 or 2 as given. Provide the label of your selected option as the answer.
stdout: 2
(2: 7.44, 1: 6.55)
